The values you see were collected from paper PMC9655341.

Target: human MT2 melatonin receptor (Homo sapiens, UniProt P49286)
Sequence (P49286 whole entry): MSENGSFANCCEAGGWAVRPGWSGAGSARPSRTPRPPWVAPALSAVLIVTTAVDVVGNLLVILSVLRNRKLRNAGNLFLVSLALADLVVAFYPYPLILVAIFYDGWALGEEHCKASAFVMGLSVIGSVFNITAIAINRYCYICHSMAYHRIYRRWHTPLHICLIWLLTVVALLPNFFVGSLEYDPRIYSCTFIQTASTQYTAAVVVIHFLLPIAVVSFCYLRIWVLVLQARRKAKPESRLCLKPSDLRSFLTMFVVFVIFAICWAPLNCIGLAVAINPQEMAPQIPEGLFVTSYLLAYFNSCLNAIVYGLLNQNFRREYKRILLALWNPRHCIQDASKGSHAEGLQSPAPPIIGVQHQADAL
pKi: −log10 of the molar value.
value_type: pKi

compound | value_type | obs_value
CCC(=O)NC1Cc2ccccc2C(c2ccccc2)C1 (stereo not shown) [4-P-PDOT, reference compound] | pKi | 9.59

* * *

Target: human MT1 receptors (Homo sapiens, UniProt P48039)
Construct: expressed in transfected cells; host or cells: CHO (Chinese hamster ovary) cells, stably transfected
Sequence (P48039 whole entry): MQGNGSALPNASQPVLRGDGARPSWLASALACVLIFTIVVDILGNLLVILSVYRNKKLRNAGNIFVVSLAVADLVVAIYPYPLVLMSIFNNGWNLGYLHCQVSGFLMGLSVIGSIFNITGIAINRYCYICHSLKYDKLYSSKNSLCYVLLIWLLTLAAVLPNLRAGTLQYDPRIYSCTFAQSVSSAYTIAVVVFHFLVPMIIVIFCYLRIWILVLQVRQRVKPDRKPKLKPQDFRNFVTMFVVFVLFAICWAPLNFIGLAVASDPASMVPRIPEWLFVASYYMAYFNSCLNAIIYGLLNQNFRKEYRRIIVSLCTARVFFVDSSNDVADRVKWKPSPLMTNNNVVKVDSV
Assay: Binding affinity at human MT1 receptors stably transfected in CHO cells, 2-[125I]iodomelatonin
Settings: read-out: MT1 pKi (Mean ± SD) (converted)
value_type: log10(Ki) (log10 of the value in nM)

compound | target_system | obs_value
COc1ccc2c(c1)C(C)(CCNC(C)=O)CN2Cc1ccccc1 (stereo not drawn) | human MT1 receptors (Homo sapiens, UniProt P48039) | 2.05
COc1ccc2c(c1)C(CCNC(C)=O)CN2Cc1ccccc1 (stereo not drawn) | human MT1 receptors (Homo sapiens, UniProt P48039) | 0.72
CC(=O)NCCC1(C)CN(Cc2ccccc2)c2ccccc21 (stereo not drawn) | human MT1 receptors (Homo sapiens, UniProt P48039) | 3.24
COc1ccc2c(c1)C(C)(CCNC(C)=O)CN2C (stereo not drawn) | human MT1 receptors (Homo sapiens, UniProt P48039) | 1.77
CC(=O)NCCC1(C)CN(C)c2ccccc21 (stereo not drawn) | human MT1 receptors (Homo sapiens, UniProt P48039) | 2.89
CC(=O)NCCC1CN(C)c2c1ccc(C)c2C (stereo not drawn) | human MT1 receptors (Homo sapiens, UniProt P48039) | 2.40
